Ref: paper PMC10302146

Experiment: Everted gut sac absorption study (duodenum), HPLC-MS
Format: in vitro ADME, rat
Conditions: male, Wistar, rat, 10^−5 M
ATTRIBUTE MEASURED: Papp at 60 min (×10⁻⁶ cm/s)
Quick note: give the figure in ×10⁻⁶ cm/s, leave out the unit.

// query Supply Papp at 60 min value. Item: "CN(C)c1nc(N)c2ncn(C3CCCC3)c2n1"
// result 29.6
